- assay-target: Gamma-secretase
- assay: Inhibition of gamma-secretase in human SH-SY5Y cells co-expressing APP C-terminal fragment SPA4CT assessed as inhibition of amyloid beta 40 production by electrochemiluminescent assay
- Type: cell-based
value-kind: IC50 (nM)

Check out these entries, answers already filled in.
compound | u | reading
O=C(N1CCC(c2cc(F)ccc2F)(S(=O)(=O)c2ccc(Cl)cc2)CC1)C1(C(F)(F)F)CCCC1 | nM | 140
O=C(c1ncccc1C(F)(F)F)N1CCC(c2cc(F)ccc2F)(S(=O)(=O)c2ccc(Cl)cc2)CC1 | nM | 70
O=C(N1CCC(c2cc(F)ccc2F)(S(=O)(=O)c2ccc(Cl)cc2)CC1)C1(C(F)(F)F)CCCCC1 | nM | 220
O=C(N1CC[C@](c2cc(F)ccc2F)(S(=O)(=O)c2ccc(Cl)cc2)[C@@H](O)C1)C1(C(F)(F)F)CC1 (single isomer, unassigned; 11b) | nM | 90
CC(C)(O)C(=O)N1CCC(c2cc(F)ccc2F)(S(=O)(=O)c2ccc(Cl)cc2)CC1 | nM | 130
Cn1cc(C(=O)N2CCC(c3cc(F)ccc3F)(S(=O)(=O)c3ccc(Cl)cc3)CC2)c(C(F)(F)F)n1 | nM | 160
O=C(c1cnccc1C(F)(F)F)N1CCC(c2cc(F)ccc2F)(S(=O)(=O)c2ccc(Cl)cc2)CC1 | nM | 130
Cn1nc(C(F)(F)F)c(C(=O)N2CCC(c3cc(F)ccc3F)(S(=O)(=O)c3ccc(Cl)cc3)CC2)c1Cl | nM | 230
O=C(CCC(F)(F)F)N1CCC(c2cc(F)ccc2F)(S(=O)(=O)c2ccc(Cl)cc2)CC1 | nM | 400
CC1(C(=O)N2CCC(c3cc(F)ccc3F)(S(=O)(=O)c3ccc(Cl)cc3)CC2)CC1 | nM | 70

[1] COC(=O)C1(C(=O)N2CCC(c3cc(F)ccc3F)(S(=O)(=O)c3ccc(Cl)cc3)CC2)CC1
[2] CC1(C(=O)N2CCC(c3cc(F)ccc3F)(S(=O)(=O)c3ccc(Cl)cc3)CC2)COC1
Hi there, can you help? I need to know whether 1 or 2 has lower measured IC50. Lab note: record the label of whichever item you select. 1
(1: 100 nM, 2: 880 nM)
